- assay.details: inhibitors of intracellular T. cruzi replication, confirmation, NIH3T3 host cells, beta-gal luminescence (AID 2044);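 further: intracellular parasites grown in NIH/3T3 mouse fibroblasts as host cells; luminescent beta-galactosidase reporter signal from transgenic T. cruzi replicating inside host cells; inhibitors lower the luminescence signal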
- Format: functional, cell-based
Calls of active or inactive are those of the source.
Entries annotated with measured EC50

Previously resolved entries follow.
[[record]]
molecule = "O=C(NC(c1ccc(Cl)cc1)c1cc(Cl)c2cccnc2c1O)c1cccnc1 (configuration not stated)"
assay_value = "0.253 µM (active)"

[[record]]
molecule = "O=C(Nc1cc(Sc2ccccn2)cc([N+](=O)[O-])c1)c1cccc(Cl)c1"
assay_value = "0.625 µM (active)"

[[record]]
molecule = "Cc1cc(Nc2nc3ccccc3nc2Cl)n(-c2ccc([N+](=O)[O-])cc2)n1"
assay_value = "2.24 µM (active)"

[[record]]
molecule = "CCOc1ccc(/C=N/n2cc(-c3ccccc3)nc2S)cc1"
assay_value = "2.35 µM (active)"

[[record]]
molecule = "O=[N+]([O-])c1ccc(S(=O)(=O)c2ccccc2)nc1"
assay_value = "1.89 µM (active)"


Query COCCOC(=O)C1=C(C)N=C(C)/C(=C(/O)OC(C)C)C1c1cccc([N+](=O)[O-])c1 (configuration not stated) yields EC50 of 1.31 µM (active)

Query COc1ccc(C(=O)C2CCCN(Cc3cnc(N4CCOCC4)s3)C2)c(OC)c1 (configuration not stated) yields EC50 of 0.991 µM (active)

* * *

- target.or.system: UniProt P9WMR3
- assay.details: DnaB intein splicing inhibitors, dose response, biochemical, cell-free fluorescence (AID 449749)
- Format: functional
The source made the active and inactive calls.
API: response.call in yes for active, no for inactive

Example cases with answers are listed next.
[[record]]
compound = "O=C(O)/C=C/C(=O)Nc1ccc(C2(c3ccc(NC(=O)/C=C/C(=O)O)cc3)c3ccccc3-c3ccccc32)cc1"
group = "yes"

[[record]]
compound = "COc1ccc(C2NC(=O)NC3=C2CCc2ccccc23)cc1 (centres undefined)"
group = "no"

[[record]]
compound = "CC(C)C[C@H](N)c1nnc(S(=O)(=O)Cc2ccc(F)cc2)o1"
group = "yes"


Can you look up the reported call for Cc1cccc(NC(=S)N/N=C2/CCCCc3ccccc32)c1 for me?
yes

Can you look up the reported call for CSc1nnc(NC(=O)c2nc(S(=O)(=O)Cc3ccccc3)ncc2Cl)s1 for me?
yes

Can you look up the reported call for CCN(CC)C(=O)CSc1nnc2nnc3cc(OC)ccc3n12 for me?
no

Can you look up the reported call for CCNC1=C(Cl)C(=O)c2ccccc2C1=O for me?
yes

Can you look up the reported call for COc1ccc(C(=O)/C=C/Sc2nc3ccccc3o2)cc1 for me?
no

Can you look up the reported call for Cc1cc(-c2[nH]nc3c2C(c2ccsc2)C(C#N)=C(N)O3)c(C)s1 (centres undefined) for me?
yes

Can you look up the reported call for CC(=O)N(C1=C(N2CCOCC2)C(=O)c2ccccc2C1=O)c1ccc(C(=O)O)cc1 for me?
yes

Can you look up the reported call for CCCc1n[nH]c2c1C(c1ccncc1)C(C#N)=C(N)O2 (centres undefined) for me?
yes

Can you look up the reported call for CCCCCCCCc1c(O)nc(-n2[nH]c(C)c(CCO)c2=O)[nH]c1=O for me?
yes

Can you look up the reported call for CCc1ccc(C2C(C#N)=C(N)C(C#N)(C#N)C3=CCC(C(C)(C)C)CC32)cc1 (centres undefined) for me?
no

Can you look up the reported call for COC(=O)CS(=O)(=O)c1nnc([C@H](Cc2ccccc2)NC(=O)OC(C)(C)C)o1 for me?
yes

Can you look up the reported call for O=c1c2ccccc2nc(/C=C/c2cccnc2)n1CCc1ccccc1 for me?
yes

Can you look up the reported call for Cc1cc(=O)n(CCCc2ccccc2)[nH]1 for me?
yes

Can you look up the reported call for Cc1c(C#N)c(NC(=O)CCl)n(Cc2cccs2)c1C for me?
yes

Can you look up the reported call for CCNc1ccccc1CP(=O)(c1ccccc1)c1ccccc1O (centres undefined) for me?
yes

Can you look up the reported call for CCCc1n[nH]c2c1C(c1c[nH]nc1-c1ccc(F)cc1)C(C#N)=C(N)O2 (centres undefined) for me?
yes
